Tested on: Zymoseptoria tritici (the causal agent of wheat leaf blotch)
experimentSummary: Test B: preventive spray on wheat seedlings, wheat leaf blotch, visual disease rating
Type: in vivo
conditionContext: test suspension 250 ppm; wheat seedlings
experimentalEndpoint: Test B disease control rating (%)
Give bare numbers, in %.

Check out these entries, answers already filled in.
>  <molecule>
FC(F)(F)c1nc(-c2ccc(Cn3cc(Br)c(-c4ccccc4Cl)n3)cc2)no1

>  <assayedTarget>
Zymoseptoria tritici (the causal agent of wheat leaf blotch)

>  <Test B disease control rating / %>
0

$$$$
>  <molecule>
ON=Cc1cnn(Cc2ccc(-c3noc(C(F)(F)F)n3)cc2)c1 (mixture of isomers)

>  <assayedTarget>
Zymoseptoria tritici (the causal agent of wheat leaf blotch)

>  <Test B disease control rating / %>
99

$$$$

Now consider a different molecule.
Input line: Any idea what its Test B disease control rating is? The molecule is NC(=O)C1=NOC(Cc2ccc(-c3noc(C(F)(F)F)n3)cc2)C1 (stereo not shown)
Output line: 88

----------
For each entry below, report its Test C disease control rating value.
Test system: Puccinia recondita f. sp. tritici (the causal agent of wheat leaf rust)
experimentSummary: Test C: preventive spray on wheat seedlings, wheat leaf rust, visual disease rating
Type: in vivo
conditionContext: test suspension 10 ppm; wheat seedlings
Numbers only, in %.

>  <molSmiles>
FC(F)(F)c1nc(-c2ccc(Cn3nc4ccccc4c3Br)cc2)no1

>  <Test C disease control rating / %>
0

$$$$
>  <molSmiles>
CC(C)COC(=O)c1coc(Cc2ccc(-c3noc(C(F)(F)F)n3)cc2)n1

>  <Test C disease control rating / %>
94

$$$$
>  <molSmiles>
O=Cc1cnn(Cc2ccc(-c3noc(C(F)(F)F)n3)s2)c1

>  <Test C disease control rating / %>
98

$$$$
>  <molSmiles>
CCNC(=O)c1ccc(COc2ccc(-c3noc(C(F)(F)F)n3)cc2)s1

>  <Test C disease control rating / %>
68

$$$$
>  <molSmiles>
FC(F)(F)c1nc(-c2ccc(OCc3nc4ncccc4o3)cc2)no1

>  <Test C disease control rating / %>
0

$$$$

Now consider a different molecule.
Input line: Any idea what its Test C disease control rating is? The molecule is N#CC1(NC(=O)c2cnn(Cc3ccc(-c4noc(C(F)(F)F)n4)cc3)c2)CC1
Output line: 96

----------
For each entry below, report its pest or weed control at 250 ppm value.
Test system: Zymoseptoria tritici (the causal agent of wheat leaf blotch)
experimentSummary: Test B: preventive spray on wheat seedlings, wheat leaf blotch, visual disease rating
Assay type: in vivo
conditionContext: Zymoseptoria tritici, 456 h; 250 ppm test suspension; wheat seedlings; 100 = 100% disease control
One number for each entry, in %.

Check out these entries, answers already filled in.
>  <compound>
Cn1nc(Cc2ccc(-c3noc(C(F)(F)F)n3)cc2)cc1C(=O)NCC(F)(F)F [Compound 512]

>  <experimentalEndpoint>
pest or weed control at 250 ppm

>  <numericValue>
98

$$$$
>  <compound>
O=C(NCC(F)F)c1csc(Cc2ccc(-c3noc(C(F)(F)F)n3)cc2)n1 [Compound 505]

>  <experimentalEndpoint>
pest or weed control at 250 ppm

>  <numericValue>
100

$$$$
>  <compound>
O=C(NCCF)c1coc(Cc2ccc(-c3noc(C(F)(F)F)n3)cc2)n1 [Compound 400]

>  <experimentalEndpoint>
pest or weed control at 250 ppm

>  <numericValue>
99

$$$$

Report pest or weed control at 250 ppm for every entry below.
1. O=C(c1coc(Cc2ccc(-c3noc(C(F)(F)F)n3)cc2)n1)N1CCC(F)(F)C1 [Compound 402]
2. O=C(NCC(F)(F)F)c1csc(Cc2ccc(-c3noc(C(F)(F)F)n3)cc2)n1 [Compound 463]
3. O=C(NCC(F)(F)F)c1noc(Cc2ccc(-c3noc(C(F)(F)F)n3)cc2)n1 [Compound 506]

Output line:
96
65
49

----------
System: Puccinia recondita f. sp. tritici (the causal agent of wheat leaf rust)
experimentSummary: Test C: preventive spray on wheat seedlings, wheat leaf rust, visual disease rating
Type: in vivo
conditionContext: test suspension 10 ppm; wheat seedlings
For each entry below, report its Test C disease control rating value.
Quote the value and follow it with the unit of measurement.

>  <compound>
C=C(C)COC(=O)c1cnn(Cc2ccc(-c3noc(C(F)(F)F)n3)cc2)c1 [compound 170]

>  <experimentalEndpoint>
Test C disease control rating

>  <result>
100%

$$$$
>  <compound>
Cn1ccc(CNC(=O)c2coc(Cc3ccc(-c4noc(C(F)(F)F)n4)cc3)n2)n1 [compound 265]

>  <experimentalEndpoint>
Test C disease control rating

>  <result>
100%

$$$$
>  <compound>
Cc1c2cc(Br)ccc2nn1Cc1ccc(-c2noc(C(F)(F)F)n2)cc1 [compound 52]

>  <experimentalEndpoint>
Test C disease control rating

>  <result>
80%

$$$$
>  <compound>
Cc1noc(C)c1COc1ccc(-c2noc(C(F)(F)F)n2)cc1 [compound 338]

>  <experimentalEndpoint>
Test C disease control rating

>  <result>
0%

$$$$

Report Test C disease control rating for every entry below.
1. FC(F)(F)c1nc(-c2ccc(OCc3nc4ccccc4o3)cc2)no1 [compound 355]
2. Cc1cc2nn(Cc3ccc(-c4noc(C(F)(F)F)n4)cc3)cc2cc1Br [compound 33]
3. CC(C)(C)ONC(=O)c1cnn(Cc2ccc(-c3noc(C(F)(F)F)n3)cc2)c1 [compound 273]
4. O=C(NC1CC1)c1csc(Cc2ccc(-c3noc(C(F)(F)F)n3)cc2)n1 [compound 342]
5. C#CCOC(=O)c1cnn(Cc2ccc(-c3noc(C(F)(F)F)n3)cc2)c1 [compound 56]
6. O=C(NCC(F)(F)F)c1coc(Cc2ccc(-c3noc(C(F)(F)F)n3)cc2)c1 [compound 291]

Output line:
0%
68%
100%
100%
100%
97%

Report Test C disease control rating for every entry below.
1. C[Si](C)(C)C#CCOC(=O)c1cnn(Cc2ccc(-c3noc(C(F)(F)F)n3)cc2)c1 [compound 348]
2. N#CCNC(=O)c1cnn(Cc2ccc(-c3noc(C(F)(F)F)n3)cc2)c1 [compound 65]
3. C#CCOC(=O)c1cnn(Cc2ccc(-c3noc(C(F)(F)F)n3)s2)c1 [compound 190]
4. Cc1cc(C(=O)NCC#N)nn1Cc1ccc(-c2noc(C(F)(F)F)n2)cc1 [compound 181]
5. FC(F)(F)c1nc(-c2ccc(Cn3ccc4cnccc43)cc2)no1 [compound 137]

Output line:
["96%", "100%", "100%", "100%", "41%"]

----------
Test system: Phakopsora pachyrhizi (the causal agent of Asian soybean rust)
experimentSummary: Test A: preventive spray on soybean seedlings, Asian soybean rust, visual disease rating
Assay type: in vivo
conditionContext: test suspension 10 ppm; soybean seedlings; 100 = 100% disease control, 0 = no control
experimentalEndpoint: Test A disease control rating (%)
Answers are plain numbers, in %.

Report Test A disease control rating for every entry below.
1. FC(F)(F)c1nc(-c2ccc(Cn3ncc4c(Cl)cc(Br)cc43)cc2)no1
2. COC(=O)c1ccc(COc2ccc(-c3noc(C(F)(F)F)n3)cc2)s1
3. O=C(c1coc(Cc2ccc(-c3noc(C(F)(F)F)n3)cc2)n1)N1CCCC1
4. CC(C)(C)ONC(=O)c1cnn(Cc2ccc(-c3noc(C(F)(F)F)n3)cc2)c1
5. COC(=O)C=CCOC(=O)c1cnn(Cc2ccc(-c3noc(C(F)(F)F)n3)cc2)c1
6. Cc1cccc2cn(Cc3ccc(-c4noc(C(F)(F)F)n4)cc3)nc12
7. COCCNC(=O)c1ccc(Cc2ccc(-c3noc(C(F)(F)F)n3)cc2)cc1
8. O=C(O)c1coc(Cc2ccc(-c3noc(C(F)(F)F)n3)cc2)n1

Output line:
0
0
100
100
100
100
100
98

----------
For each entry below, report its Test C disease control rating value.
System: Puccinia recondita f. sp. tritici (the causal agent of wheat leaf rust)
experimentSummary: Test C: preventive spray on wheat seedlings, wheat leaf rust, visual disease rating
Type: in vivo
conditionContext: test suspension 10 ppm; wheat seedlings
Quote the value and follow it with the unit of measurement.

Report Test C disease control rating for every entry below.
1. CCOC(=O)c1cc(CC)nn1Cc1ccc(-c2noc(C(F)(F)F)n2)cc1
2. C[Si](C)(C)CCNC(=O)c1coc(Cc2ccc(-c3noc(C(F)(F)F)n3)cc2)n1
3. O=C(NCC1CC1(F)F)c1coc(Cc2ccc(-c3noc(C(F)(F)F)n3)cc2)n1 (stereo not drawn)
4. CC1(COC(=O)c2cnn(Cc3ccc(-c4noc(C(F)(F)F)n4)cc3)c2)COC1
5. CCCOC(=O)c1cnn(Cc2ccc(-c3noc(C(F)(F)F)n3)cc2)c1

Output line:
1: 0%; 2: 68%; 3: 100%; 4: 100%; 5: 100%

Report Test C disease control rating for every entry below.
1. FC(F)(F)c1nc(-c2ccc(Cn3ncc4c(I)cc(Cl)cc43)cc2)no1
2. CCOC(=O)c1cc(CC)n(Cc2ccc(-c3noc(C(F)(F)F)n3)cc2)n1
3. CCOC(=O)c1cnn(CCn2nc(-c3noc(C(F)(F)F)n3)ccc2=O)c1
4. Nc1ccc2c(cnn2Cc2ccc(-c3noc(C(F)(F)F)n3)cc2)c1
5. O=C(NCCn1cccn1)c1csc(Cc2ccc(-c3noc(C(F)(F)F)n3)cc2)c1
6. CSc1nn(Cc2ccc(-c3noc(C(F)(F)F)n3)cc2)nc1C

Output line:
1. 28%
2. 68%
3. 0%
4. 95%
5. 100%
6. 100%

Report Test C disease control rating for every entry below.
1. C=CCNC(=O)c1cnn(Cc2ccc(-c3noc(C(F)(F)F)n3)cc2)c1
2. O=C(NCCn1cccn1)c1coc(Cc2ccc(-c3noc(C(F)(F)F)n3)cc2)c1
3. FC(F)(F)c1nc(-c2ccc(CN3CCc4ccccc4C3)cc2)no1
4. N#CC1(NC(=O)c2coc(Cc3ccc(-c4noc(C(F)(F)F)n4)cc3)n2)CC1
5. O=C1c2ccnn2CCN1Cc1ccc(-c2noc(C(F)(F)F)n2)cc1
6. CCCNC(=O)c1cnn(Cc2ccc(-c3noc(C(F)(F)F)n3)cc2)c1
7. CC(COC(=O)c1cnn(Cc2ccc(-c3noc(C(F)(F)F)n3)cc2)c1)=NOC1CCCCO1 (stereo not drawn)

Output line:
100%
79%
67%
97%
93%
100%
98%

Report Test C disease control rating for every entry below.
1. O=C(NCC1CC1)c1csc(Cc2ccc(-c3noc(C(F)(F)F)n3)cc2)c1
2. Cc1nn(Cc2ccc(-c3noc(C(F)(F)F)n3)cc2)c2ccc(Br)cc12
3. O=C(c1coc(Cc2ccc(-c3noc(C(F)(F)F)n3)cc2)n1)N1CCC1
4. COc1ccc2c(C#N)n(Cc3ccc(-c4noc(C(F)(F)F)n4)cc3)nc2c1

Output line:
["100%", "68%", "99%", "0%"]

Report Test C disease control rating for every entry below.
1. COC(=O)c1ccc2cn(Cc3ccc(-c4noc(C(F)(F)F)n4)cc3)nc2c1
2. Cc1cccc2cn(Cc3ccc(-c4noc(C(F)(F)F)n4)cc3)nc12

Output line:
1: 92%; 2: 97%

Reference source for all entries: patent US20240090503A1
